B1: library; numbered along this chain (parent)
chain: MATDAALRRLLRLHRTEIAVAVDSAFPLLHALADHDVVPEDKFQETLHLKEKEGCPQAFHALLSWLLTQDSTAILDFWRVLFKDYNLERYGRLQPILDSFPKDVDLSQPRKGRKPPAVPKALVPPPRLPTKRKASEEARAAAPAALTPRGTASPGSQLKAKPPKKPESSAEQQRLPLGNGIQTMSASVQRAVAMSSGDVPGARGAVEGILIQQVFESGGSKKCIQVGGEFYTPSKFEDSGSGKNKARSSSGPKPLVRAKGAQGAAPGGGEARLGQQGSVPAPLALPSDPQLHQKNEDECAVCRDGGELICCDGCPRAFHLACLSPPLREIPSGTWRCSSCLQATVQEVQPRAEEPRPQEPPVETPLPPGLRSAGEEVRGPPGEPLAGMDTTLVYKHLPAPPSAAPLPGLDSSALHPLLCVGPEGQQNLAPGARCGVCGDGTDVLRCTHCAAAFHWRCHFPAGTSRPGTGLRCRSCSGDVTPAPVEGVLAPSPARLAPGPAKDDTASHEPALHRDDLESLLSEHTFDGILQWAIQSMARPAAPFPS

variants of: B1; experiment: AIRE transcriptional activation functional score (insulin promoter-GFP; nonsense median 0, synonymous median 1) (normalised score); higher = higher AIRE activity (more reporter activation); details: with insulin promoter-GFP reporter in HEK293
Value Type: AIRE transcriptional activation functional score

[[record]]
mutation = "A317I"
result = 0.854

[[record]]
mutation = "M536R"
result = -0.0464

[[record]]
mutation = "H415T"
result = 0.92

[[record]]
mutation = "F59D"
result = 0.139

[[record]]
mutation = "Y90M"
result = 0.613

[[record]]
mutation = "A500F"
result = 0.977

[[record]]
mutation = "D514N"
result = 0.242

[[record]]
mutation = "Y231D"
result = 0.734

[[record]]
mutation = "I18K"
result = 0.219

[[record]]
mutation = "A399C"
result = 1.18

[[record]]
mutation = "R433E"
result = 1.39

[[record]]
mutation = "G462Y"
result = 1.24

[[record]]
mutation = "C472Y"
result = 0.117

[[record]]
mutation = "S153D"
result = 0.728

[[record]]
mutation = "A61W"
result = 1.46

[[record]]
mutation = "A261W"
result = 1.33

[[record]]
mutation = "E354L"
result = 1.05

[[record]]
mutation = "C472I"
result = 0.154

[[record]]
mutation = "Q157C"
result = 1.27

[[record]]
mutation = "R139V"
result = 0.965

[[record]]
mutation = "P289Q"
result = 0.942

[[record]]
mutation = "D198I"
result = 0.948

[[record]]
mutation = "R272E"
result = 1.08

[[record]]
mutation = "P499T"
result = 1.32

[[record]]
mutation = "S278W"
result = 1.19

[[record]]
mutation = "H396F"
result = 1.15

[[record]]
mutation = "T151L"
result = 0.905

[[record]]
mutation = "K164S"
result = 1.22

[[record]]
mutation = "P116E"
result = 0.895

[[record]]
mutation = "G269H"
result = 0.996

[[record]]
mutation = "R513N"
result = 0.0982

[[record]]
mutation = "Q44R"
result = 0.783

[[record]]
mutation = "V362P"
result = 0.988

[[record]]
mutation = "G269I"
result = 1.06

[[record]]
mutation = "S474G"
result = 0.801

[[record]]
mutation = "D312R"
result = 0.976

[[record]]
mutation = "D4L"
result = 0.0531

[[record]]
mutation = "C322V"
result = 0.9

[[record]]
mutation = "S168D"
result = 0.307

[[record]]
mutation = "P497G"
result = 1.29

[[record]]
mutation = "K253N"
result = 0.817

[[record]]
mutation = "G267I"
result = 1.18

[[record]]
mutation = "P416F"
result = 0.451

[[record]]
mutation = "S506N"
result = 0.728

[[record]]
mutation = "F59S"
result = 0.2

[[record]]
mutation = "Q358R"
result = 1.17

[[record]]
mutation = "Q290W"
result = 1.1

[[record]]
mutation = "H48Y"
result = 1.23

[[record]]
mutation = "R79C"
result = 0.278

[[record]]
mutation = "D515Q"
result = 0.723

[[record]]
mutation = "W335R"
result = 1.29

[[record]]
mutation = "C55L"
result = -0.0993

[[record]]
mutation = "C475D"
result = -0.0916

[[record]]
mutation = "A261L"
result = 0.746

[[record]]
mutation = "R132Y"
result = 0.288

[[record]]
mutation = "E375C"
result = 0.539

[[record]]
mutation = "E522R"
result = -0.0906

[[record]]
mutation = "S168E"
result = 0.606

[[record]]
mutation = "C223Y"
result = 0.577

[[record]]
mutation = "P430I"
result = 1.28

